EXPERIMENTAL_SETUP: 318.15 K; 101 kPa; Liquid
PROPERTY_MEASURED: speed of sound (m/s)

INSERT INTO results (compound, property_measured, observed_result) VALUES
  ('CNC(C)=O [N-methylacetamide]', 'speed of sound', 1319),
  ('CCOC(=O)CC#N [ethyl cyanoacetate]', 'speed of sound', 1359),
  ('CCOC(C)=O [ethyl acetate]', 'speed of sound', 1058),
  ('CCOC(=O)CCl [ethyl chloroethanoate]', 'speed of sound', 1177);

====

EXPERIMENTAL_SETUP: 303.15 K; 101 kPa; Liquid
PROPERTY_MEASURED: speed of sound (m/s)

INSERT INTO assay_data (molecule, property_measured, unit_abbrev, observed_result) VALUES
  ('CCOC(C)=O [ethyl acetate]', 'speed of sound', 'm/s', 1119),
  ('CCOC(=O)CC#N [ethyl cyanoacetate]', 'speed of sound', 'm/s', 1397),
  ('CNC(C)=O [N-methylacetamide]', 'speed of sound', 'm/s', 1367),
  ('CCOC(=O)CCl [ethyl chloroethanoate]', 'speed of sound', 'm/s', 1229);

These data points were gathered from the NIST ThermoML archive (doi:10.1021/je060343y).
